Kindly supply the reported variant/HC_K99L values for the records listed here.
Biological target: T1, mouse tissue factor pathway inhibitor (TFPI) (mouse, UniProt O54819 29-289, limits assumed)
T1 construct: bought; also called mTFPI; murine TFPI
T1 sequence (looked up): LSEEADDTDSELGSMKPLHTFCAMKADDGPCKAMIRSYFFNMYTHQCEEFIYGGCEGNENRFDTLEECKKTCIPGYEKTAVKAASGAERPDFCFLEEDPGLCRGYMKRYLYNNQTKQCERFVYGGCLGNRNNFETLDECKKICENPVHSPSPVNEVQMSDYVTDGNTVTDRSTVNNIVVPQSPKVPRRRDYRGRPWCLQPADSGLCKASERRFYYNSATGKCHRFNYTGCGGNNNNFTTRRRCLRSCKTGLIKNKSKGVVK
Assay: competitive ELISA

Entry 2A8 HC M34I+S35D+S55R+K99L/LC Y48F+N51V+D91W (Fab, V domains shown) VH: QVQLVESGGGLVQPGGSLRLSCAASGFTFRSYGIDWVRQAPGKGLEWVSSIRGSRSSTYYADSVKGRFTISRDNSKNTLYLQMNSLRAEDTAVYYCARLYRYWFDYWGQGTLVTVSS VL: DIELTQPPSVSVAPGQTARISCSGDNLRNYYAHWYQQKPGQAPVVVIFYDVNRPSGIPERFSGSNSGNTATLTISGTQAEDEADYYCQSWWDGVPVFGGGTKLTVLG , variant/HC_K99L reported as 18.1 ratio

Data point: 2A8 HC S31V+S50A+I51D+S55R+K99V/LC Y48F+D91L+V96W (Fab, V domains shown) VH: QVQLVESGGGLVQPGGSLRLSCAASGFTFRVYGMSWVRQAPGKGLEWVSADRGSRSSTYYADSVKGRFTISRDNSKNTLYLQMNSLRAEDTAVYYCARVYRYWFDYWGQGTLVTVSS VL: DIELTQPPSVSVAPGQTARISCSGDNLRNYYAHWYQQKPGQAPVVVIFYDNNRPSGIPERFSGSNSGNTATLTISGTQAEDEADYYCQSWLDGVPWFGGGTKLTVLG ; variant/HC_K99L = 9.3 ratio

// sample 2A8 HC S35D+K99L/LC unchanged (Fab, V domains shown) VH: QVQLVESGGGLVQPGGSLRLSCAASGFTFRSYGMDWVRQAPGKGLEWVSSIRGSSSSTYYADSVKGRFTISRDNSKNTLYLQMNSLRAEDTAVYYCARLYRYWFDYWGQGTLVTVSS VL: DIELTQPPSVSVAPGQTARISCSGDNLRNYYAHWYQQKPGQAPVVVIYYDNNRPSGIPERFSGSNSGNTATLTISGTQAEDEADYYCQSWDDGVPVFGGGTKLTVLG , its variant/HC_K99L was 4.5 ratio

Record 2A8 HC S31V+G33P+S35D/LC Y48F+N51V+D91L (Fab, V domains shown) VH: QVQLVESGGGLVQPGGSLRLSCAASGFTFRVYPMDWVRQAPGKGLEWVSSIRGSSSSTYYADSVKGRFTISRDNSKNTLYLQMNSLRAEDTAVYYCARKYRYWFDYWGQGTLVTVSS VL: DIELTQPPSVSVAPGQTARISCSGDNLRNYYAHWYQQKPGQAPVVVIFYDVNRPSGIPERFSGSNSGNTATLTISGTQAEDEADYYCQSWLDGVPVFGGGTKLTVLG , field variant/HC_K99L: 11.7 ratio

Summary for this binder, 2A8 HC S35D+S55R+K99L/LC Y48F+N51V+D91W+P95V (Fab, V domains shown) VH: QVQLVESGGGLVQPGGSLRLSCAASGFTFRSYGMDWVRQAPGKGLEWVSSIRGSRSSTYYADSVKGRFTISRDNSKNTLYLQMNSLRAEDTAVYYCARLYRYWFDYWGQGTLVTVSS VL: DIELTQPPSVSVAPGQTARISCSGDNLRNYYAHWYQQKPGQAPVVVIFYDVNRPSGIPERFSGSNSGNTATLTISGTQAEDEADYYCQSWWDGVVVFGGGTKLTVLG : variant/HC_K99L is 13.7 ratio
